procedure text: Protein binding in human plasma
Format: ADME, cell-free
condition summary: read-out: PPB (converted)

given smiles	fraction unbound
CCn1ncc(-c2nc3c(O[C@H]4CCN(C(=O)C5CCOCC5)C4)ncnc3n2C)c1C	0.83
CCn1ncc(-c2nc3c(N[C@H]4CCN(C(=O)C5CC5)C4)ncnc3n2C)c1C	0.45
CCn1ncc(-c2nc3c(N4CCC(n5c(=O)[nH]c6ncccc65)CC4)ncnc3n2C)c1C	0.21

* * *

tested system: Phosphodiesterase 3 (Homo sapiens, UniProt Q14432+Q13370)
procedure text: Inhibition of PDE3 (unknown origin)
Format: protein assay
The reader will find reported IC50 values listed item by item below.

given smiles	IC50
CCn1ncc(-c2nc3c(N4CCC(n5c(=O)[nH]c6ncccc65)CC4)ncnc3n2C)c1C	1.03 µM
CCn1ncc(-c2nc3c(N[C@H]4CCN(C(=O)C5CCOCC5)C4)ncnc3n2C)c1C	> 20 µM
CCn1ncc(-c2nc3c(O[C@H]4CCN(C(=O)C5CCOCC5)C4)ncnc3n2C)c1C	> 50 µM
CCC(=O)N1CC[C@H](Nc2ncnc3c2nc(-c2cnn(CC)c2C)n3C)C1	> 20 µM
